Where do these numbers come from? They come from patent US20080119456A1.

# TESTED_TARGET: human CRTH2-Rluc (Homo sapiens, UniProt Q9Y5Y4, V204A)
# Sequence (Q9Y5Y4 whole entry V204A): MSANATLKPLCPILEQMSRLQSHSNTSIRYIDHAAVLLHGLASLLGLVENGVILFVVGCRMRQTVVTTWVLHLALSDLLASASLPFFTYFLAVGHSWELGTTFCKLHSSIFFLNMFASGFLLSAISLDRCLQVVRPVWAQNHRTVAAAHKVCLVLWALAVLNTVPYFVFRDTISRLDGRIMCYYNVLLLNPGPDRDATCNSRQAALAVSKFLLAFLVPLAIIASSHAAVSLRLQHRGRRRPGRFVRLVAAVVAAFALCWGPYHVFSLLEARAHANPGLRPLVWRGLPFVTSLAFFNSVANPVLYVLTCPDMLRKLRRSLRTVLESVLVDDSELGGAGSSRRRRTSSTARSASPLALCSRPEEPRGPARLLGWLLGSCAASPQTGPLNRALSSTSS
# ASSAY_REMARKS: Functional antagonist BRET assay on HEK293 cells stably expressing CRTH2-Rluc and GFP2-β-arr2
# ASSAY_CONTEXT: antagonist incubated 15 minutes before agonist, read-out: Antag. IC50
pIC50: −log10 of the molar value.
MEASURED_PARAMETER: pIC50

Task: Give its pIC50 value. Item: `O=C(O)Cc1sc(C(c2ccccc2)c2ccccc2)nc1-c1ccc(F)c(F)c1`
Output: > 6.30

Task: Same thing, different compound: O=C(O)Cc1sc(C(Cc2ccccc2)c2ccccc2)nc1-c1ccc(Cl)cc1 (stereo not shown)
Output: 5.30 to 6.30

Task: Now consider `O=C(O)Cc1sc(C(c2ccccc2)c2ccccc2)nc1-c1ccc(F)cc1` and answer again.
Output: > 6.30

Task: Another: `O=C(O)Cc1sc(C(c2ccccc2)c2ccccc2)nc1-c1ccccc1`
Output: > 6.30

Task: Now the same for `O=C(O)Cc1sc(C(c2ccccc2)c2ccccc2)nc1-c1ccc(Oc2ccccc2)cc1`
Output: 5.30 to 6.30

Task: // query: `O=C(O)Cc1sc(Cc2ccccc2-c2ccc3c(c2)OCO3)nc1-c1ccc(F)cc1`
Output: > 6.30

Task: // next record `O=C(O)Cc1sc(C(c2ccccc2)c2ccccc2)nc1-c1cccc(F)c1`
Output: > 6.30

Task: Also need COc1ccc(C(c2ccccc2)c2nc(-c3ccc(F)cc3)c(CC(=O)O)s2)cc1 (stereo not shown) , thanks.
Output: > 6.30

Task: Lookup O=C(O)Cc1sc(C(c2ccccc2)c2ccc(F)cc2)nc1-c1ccc(Cl)cc1 (stereo not shown)
Output: > 6.30

Task: Same question, O=C(O)Cc1sc(C(c2ccccc2)c2ccc(F)c(F)c2)nc1-c1ccc(F)cc1 (stereo not shown) this time
Output: > 6.30

Task: Same question, `COc1ccc(-c2ccccc2Cc2nc(-c3ccc(F)cc3)c(CC(=O)O)s2)cc1` this time
Output: > 6.30

Task: And then `COc1ccc(C(c2ccc(OC)cc2)c2nc(-c3ccc(F)cc3)c(CC(=O)O)s2)cc1` , what is it?
Output: > 6.30

Task: For O=C(O)Cc1sc(C(c2ccccc2)c2ccccn2)nc1-c1ccc(Cl)cc1 (stereo not shown) then?
Output: 5.30 to 6.30

Task: Param item: O=C(O)Cc1sc(C(c2ccccc2)c2ccc(Cl)cc2)nc1-c1ccc(F)cc1 (stereo not shown)
Output: > 6.30

Task: What about this compound? COc1ccc(C(c2ccccc2)c2nc(-c3ccc(Cl)cc3)c(CC(=O)O)s2)cc1 (stereo not shown)
Output: > 6.30

Task: Param item: `O=C(O)Cc1sc(Cc2ccccc2-c2ccccc2)nc1-c1ccc(Cl)cc1`
Output: > 6.30

Task: Check O=C(O)Cc1sc(C(c2ccccc2)c2ccc(F)c(F)c2)nc1-c1ccc(Cl)cc1 (stereo not shown) too.
Output: < 5.30

Task: Also need `CC(=O)N1CCC(c2ccccc2)(c2nc(-c3ccc(Cl)cc3)c(CC(=O)O)s2)CC1` , thanks.
Output: 5.30 to 6.30

Task: Entry to check: `COc1ccc(-c2nc(C(c3ccccc3)c3ccccc3)sc2CC(=O)O)cc1`
Output: 5.30 to 6.30

* * *

# TESTED_TARGET: human CRTH2 receptor (Homo sapiens, UniProt Q9Y5Y4, V204A)
# Sequence (Q9Y5Y4 whole entry V204A): as above
# ASSAY_REMARKS: Receptor binding assay: [3H]PGD2 competition on whole COS-7 cells transfected with CRTH2
# ASSAY_CONTEXT: 0.1 nM [3H]PGD2, whole cells, 3 h at 4° C.
pIC50: −log10 of the molar value.
Listed here are molecules together with their documented pIC50.

• O=C(O)Cc1sc(C(c2ccccc2)c2ccc(F)c(F)c2)nc1-c1ccc(Cl)cc1 (centres unmarked) = > 6.30
• O=C(O)Cc1sc(Cc2ccccc2-c2ccccc2)nc1-c1ccc(Cl)cc1 = > 6.30
• O=C(O)Cc1sc(Cc2ccccc2Oc2ccccc2)nc1-c1ccc(Cl)cc1 = 5.30 to 6.30

Task: Form entry - test system: human CRTH2 receptor (Homo sapiens, UniProt Q9Y5Y4, V204A); read-out: pIC50; molecule: O=C(O)Cc1sc(C(c2ccccc2)c2ccccn2)nc1-c1ccc(Cl)cc1 (centres unmarked)
Output: > 6.30

Task: // query: O=C(O)Cc1sc(C(Cc2ccccc2)c2ccc(Cl)cc2)nc1-c1ccc(Cl)cc1 (centres unmarked)
Output: > 6.30

Task: Check `COc1ccc(-c2nc(C(c3ccccc3)c3ccccc3)sc2CC(=O)O)cc1` too.
Output: > 6.30

Task: Same question for `COc1ccccc1-c1ccccc1Cc1nc(-c2ccc(F)cc2)c(CC(=O)O)s1` please.
Output: > 6.30

Task: Another: `O=C(O)Cc1sc(C2(c3ccccc3)CCNCC2)nc1-c1ccc(Cl)cc1`
Output: 5.30 to 6.30
